# Assay method text: chemical genetic growth profiling, strain panel (AID 1159580);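 note: tested at 20 µM; growth read once vehicle control cultures reached saturation at 30 °C; lower values mean less growth of the strain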
# Study conditions: S. cerevisiae deletion strains, growth OD, locus YLR370C, strain arc18
The campaign covered roughly 5,500 compounds. About 2,000 (36%) were called active. Not shown: some 18% with an inconclusive outcome. Cut-off read from the data, not from the text of the source: active = normalized growth mostly below about 0.91 (no sharp cut-off); inconclusive = no clear call, values can overlap the other calls; inactive = mostly above about 0.92. The list shows a part of the results.
Possible outcomes: active, inactive

{"Compound": "COc1c2c(cc3c1OCO3)CCN(C)C2", "Class": "inactive"}
{"Compound": "C=CC(C1=CC(=O)C=CC1=O)c1ccccc1 (stereo not drawn)", "Class": "inactive"}
{"Compound": "CC(=O)NCCCCCC(=O)O", "Class": "inactive"}
{"Compound": "CCCC(C)C1(CC)C(=O)NC(=O)NC1=O (stereo not drawn)", "Class": "inactive"}
{"Compound": "CC(=O)NCCCS(=O)(=O)O", "Class": "inactive"}
{"Compound": "CCCC(C)C1(CC)C(=O)N=C(S)NC1=O (stereo not drawn)", "Class": "inactive"}
{"Compound": "C=CC(C1=CC(=O)C(OC)=CC1=O)c1ccccc1 (stereo not drawn)", "Class": "inactive"}
{"Compound": "COC(C)(C)CCC[C@H](C)C/C=C/C(C)=C/C(=O)OC(C)C", "Class": "inactive"}
{"Compound": "CC(C)(C)NCC(O)c1ccccc1Cl (stereo not drawn)", "Class": "inactive"}
{"Compound": "CC1(C)CCCC2(C)C3C1[C@@H](O)C2(C)C[C@H]3O (stereo partly drawn)", "Class": "inactive"}
{"Compound": "C=CCC1(C(C)CCC)C(=O)N=C(S)NC1=O (stereo not drawn)", "Class": "inactive"}
{"Compound": "OC[C@@H]1CCCN2CCCC[C@H]12", "Class": "inactive"}
{"Compound": "C=C[C@@H](C1=CC(=O)C(OC)=C(OC)C1=O)c1ccccc1", "Class": "active"}
